- assay-notes: label from the status in PepcDB records
endpoint-name: protein production

Record excerpt, results attached:
KTFAALGSGVIGSGWIARALAHGLDVVAWDPAPGAEAALRARVANAWPALRKQGLAPGAAQERLRFVASIEECVGDADFIQESAPERLDLKLDLHARISAAARPDVLIGSSTSGLLPSEFYAEASHPERCLVGHPFNPVYLLPLVEVVGGERTAAEAVRAAMRVYESLGMRPLHVRKEVPGFIADRLLEALWREALHLVNDGVATTGEIDDAIRFGAGLRWSFMGTFLTYTLAGGNAGMRHFMAQFGPALQLPWTYLPAPELTEALIDRVVEGTAEQQGARSIAELERYRDDCLLAVLGAIRETKARHGFA :: failed
MDMTYYDHGTPAERWERARMFFDAKDYAAAARVLDGLVAQVPEQTGPRLLLARSYYHSAQLRRAEAELRVVVERDPVEHYARLMLGRTLERQGRQEEADAQLRIASALAGDFAEL :: failed
PQALEFEYMRWIATGARAFIDAHQDASKLRITHLGGGACTMARYFADVYPQSRNTVVELDAELARLSREWFDIPRAPRVKIRVDDARMVAESFTPASRDVIIRDVFAGAITPQNFTTVEFFEHCHRGLAPGGLYVANCGDHSDLRGAKSELAGMMEVFEHVAVIADPPMLKGRRYGNIILMGSDTEFF :: failed
MGQFSLDSISSEISERKSFIGRINDEKLSSFDDVVKQRETKSWRAWRRSKRRRFTRKRHGLLASATAEGSESTVHARLNEEDLTAEIVFEECHVSGGELNDVVRLENEMLDRFYGAGFWRSPSQKDTSSGSL :: failed
MKKITKMVISSVLATVLMTACSQSSQNGQSDVKHIGILQYVEHPSLTATRKGFIKELAKEGYKDGKNIKIEYKNAQGDQSNIQSISEKLIKDNKLVLGIATPAAQSLTTVSTETPILFTAVTDPVSAELVKSMKKPEGLATGTSDMSPIKKQVSLLRKVMPKVKRVGIMYTTSERNSEVQVKQAKKIFQEAGIKTSVKGISSTNDVQDTAKSLMSKTEVIFVPTDNIIASSVTLLGNLSKELKVPVVGGSADMVPSGLLFSYGADYEALGRQTARQAVKILKGKDVAKVPSEYPQNLKVVVNEDMAKELGIDVSSIKNNK :: failed

Query :: Any idea what its protein production is? The sequence is MNLIINDKTASSSVGQTIGKAARLNHAHVGYVCGGHGLCQACYITVQEGADCLAPLTDVEKAFLSPRQIAAGGRMACQATIAKEGTVKVLSRPEEVRRMVFSNPFQLIGYAADMGKDTAQQIVPGVQNLIGRIQRGEMGGKDALGDMIESIQGAAGLVVEAIQQGPMALPIPFKEQIADLISKLPLPQIQLPSISLPQLPSISFPQLPFSLPKLPFSLPFLPQQPQATASLEKVTITVQPPAKD
Result :: failed

Query :: Any idea what its protein production is? The sequence is VVAPITTGYTVKISNYGWDQSDKFVKIYITLTGVHQVPTENVQVHFTERSFDLLVKNLNGKSYSMIVNNLLKPISVEGSSKKVKTDTVLILCRKKVENTRWDYLTQVEKECKEK
Result :: not failed

Query :: Any idea what its protein production is? The sequence is MKPVFLDFEQPIAELTNKIDELRFVQDESAVDISDEIHRLQKKSNDLTKSIFSKLTPAQISQVSRHPQRPYTLDYIEALFTDFEELHGDRHFADDYAIVGGLARFNGQSVMVVGHQKGRDTKEKIRRNFGMPRPEGYRKALRLMKTAEKFGLPVMTFIDTPGAYPGIGAEERGQSEAIGKNLYELTRLRVPVLCTVIGEGGSGGALAVALGDYVNMLQYSTYSVISPEGCASILWKTAEKAADAAQALGITADRLQKLDLVDTVIKEPLGGAHRDFGQTMKNVKAVLEKQLHEAQSIPLADLLSRRFDRIMAYGKFSEQ
Result :: not failed

Query :: Any idea what its protein production is? The sequence is MLTNSINYSELSDVAAFVCVVQTGSFTAAAEQLNTSKSVISKYITRLEKRLGVKLLARTTRRLTLTEIGRTFYEGSRQGLEAIDNAEEAVSFLQGKPRGTLKINAPLSFGALHIAPALEEFIHRYPEMQIDLRFDDKKIDMIKDGFDLTVRITHQLEGNLIARRIAPCHHALVAAPNYLAKRGTPKRPEDLVAHNVITYQYQQSPWEWEFTAAKSKPKRVRVNGSVQMNNSLAIREAVLAGVGISRMPTFAVGEDIKSGRLIQLLPKYSLLEHSIYLVFPERNHMAPKTRAFIDYMVKIMEGKPSWDRF
Result :: failed

Query :: Any idea what its protein production is? The sequence is STGESSSVSERGSLKQQLREYIRWEEAARNLLGLIEAKENRNHQPPQPKALGNQQPSWDSEDSSNFKD
Result :: failed
